Tested on: CCRF-CEM leukemia
Test: NCI tumour cell line growth inhibition, 48 h; in the data active means GI50 below about 0.43 µM; inactive means the rest
Possible outcomes: active, inactive

STRUCTURE_SMILES_STRING	ASSIGNED_CLASS
ClC1=C(Cl)C(Cl)(C2(Cl)C(Cl)=C(Cl)C(Cl)=C2Cl)C(Cl)=C1Cl	active
O=c1nc2n(-c3cccc(Cl)c3)c3ccc([N+](=O)[O-])cc3cc-2c(=O)[nH]1	inactive
C=CCc1cccc(C=O)c1O	inactive
O=C1C=C(Nc2ccccc2)c2ccccc2C1=O	inactive
COc1cccc2c1nc(C(F)F)n2-c1nc(-c2ccc(NS(=O)(=O)CCN(C)C)cc2)nc(N2CCOCC2)n1	active
C[C@@H]1CN2[C@H]3[C@@H]1CC[C@]31CCC(=O)O[C@]1(C)[C@H]1CC[C@H]3CCC=C3[C@@H]12	inactive
CCOC(=O)c1noc2c1CCc1c-2cn(Cc2ccc(OC)cc2)c1-c1cc(OC)c(OC)c(OC)c1	inactive
COC(=O)c1cc2ccc(O)c(O)c2cn1	inactive
Cn1cc(-c2ccc3nc(-c4ccc(CC(=O)Nc5cc(C(C)(C)C)no5)cc4)cnc3c2)cn1	inactive
CC(=O)/C(=C\c1ccc(Cl)cc1)c1ccccc1	active
